Assay: NCI Yeast Anticancer Drug Screen. Data for the mec2-1 strain (AID 157)
Settings: S. cerevisiae mec2-1 strain, at 50.0 µM
The panel holds about 79,000 compounds, 15% with a hit somewhere; the sample as a whole holds those more often. Activity calls are given as the source filed them. Cut-off read from the data, not from the text of the source: active = growth inhibition above about 70%; inactive = the rest.
// one of true = active, false = inactive, no free text

[
  {
    "query smiles": "CC1(C2CC2)C(C#N)(C#N)C1(C#N)C#N",
    "answer label": "false"
  },
  {
    "query smiles": "COc1ccc(C(=O)/C=C\\c2ccc(Cl)c(Cl)c2)cc1",
    "answer label": "false"
  }
]

Req: For `NCCOc1ccc(/C(=C(/Cl)c2ccccc2)c2ccccc2)cc1` , what call appears in the results of this test?
Resp: true

Req: Field: outcome | Entry: `CC(C)(CN1CCCCC1)C(=O)/C=C/c1c(Cl)cccc1Cl`
Resp: true

Req: Please share the test call associated with `CC1=COC2=C(C)C(=O)C(=O)c3c(C)ccc1c32` .
Resp: true

Req: Assay result, entry `O=C(O)C(=Cc1ccc(-c2ccccc2)cc1)C(=O)O` — outcome?
Resp: false

====

Assay: NCI Yeast Anticancer Drug Screen. Data for the wt2 strain (AID 169);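 note: 0% = growth of vehicle-treated yeast cultures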
Details: S. cerevisiae wt2 strain growth inhibition; at 3.7 µM; active compounds read high
About 79,000 compounds went through this panel and 15% of them were active in at least one assay; those are over-represented in the sample as a whole.
Here the recorded growth inhibition is given for each entry.
Value expressed in %; do not type the unit.

Known growth inhibition results, listed for orientation:
[
  {
    "compound": "CC1CCN(CCC(=O)c2ccc([N+](=O)[O-])cc2)CC1",
    "growth inhibition (%)": -2
  },
  {
    "compound": "CCOC(=O)/C(=C\\c1ccc(F)cc1)C(C)=O",
    "growth inhibition (%)": -17
  },
  {
    "compound": "O=C(NO)c1coc2ccccc2c1=O",
    "growth inhibition (%)": -4
  }
]

Req: Answer with the recorded growth inhibition of COc1cc(C2C3=C(COC3=O)Oc3cc4c(cc32)OCO4)cc(OC)c1O (stereo not given) only.
Resp: 1

Req: Look up growth inhibition of `Clc1ccc(/C(=C\c2ccccc2)Cn2ccnc2)cc1` and report it.
Resp: 29

Req: Query growth inhibition for `COc1cc(C(=O)C=O)cc(OC)c1OC`
Resp: 1

Req: Please look at this compound and report its growth inhibition: `CCCCS/C(=C(/C#N)C(N)=O)c1cc2c([nH]1)CCCC2`
Resp: -17

Req: Recall and state the measured growth inhibition for `CC/C(=C(\c1ccccc1)c1ccc(OCC[N+](C)(C)C)cc1)c1ccccc1` .
Resp: 55

====

The entries below are paired with their reported growth inhibition.
Test: NCI Yeast Anticancer Drug Screen. Data for the rad18 strain (AID 177)
Settings: S. cerevisiae rad18 mutant growth inhibition; at 3.7 µM; active compounds read high
The panel holds about 79,000 compounds, 15% with a hit somewhere; the sample as a whole holds those more often.
Report only the number, with the unit % understood.

Consider the reported growth inhibition for these molecules:
[
  {
    "molecule": "O=C1/C(=C/c2ccc(Cl)c(Cl)c2)CNC/C1=C\\c1ccc(Cl)c(Cl)c1",
    "units label": "%",
    "growth inhibition": 16
  },
  {
    "molecule": "CCCCOc1ccc2nc(C)cc(N=[N+]=[N-])c2c1",
    "units label": "%",
    "growth inhibition": 19
  }
]

Req: Read off the recorded growth inhibition for N#CCC(=O)N/N=C(\c1ccccc1)C(c1ccccc1)C1(O)C(=O)Nc2c(Cl)ccc(Cl)c21 (stereo unspecified)
Resp: 8

Req: Identify the reported growth inhibition for the following entry. `O=C1C=C(Br)C(=O)c2ccccc21`
Resp: 11

Req: Supply growth inhibition value. Item: `O=C(Cc1ccccc1)NNc1nc(NNC(=O)c2ccncc2)nc(Nc2ccc([N+](=O)[O-])cc2)n1`
Resp: 26
